Origin of values: patent US8436023B2

biological target: CCR2 (Homo sapiens, UniProt P41597); construct: host or cells: THP-1 human monocytic cells; assay: MCP-1 Receptor Binding Assay in THP-1 Cells; conditions: 0.5 nM 125I labeled MCP-1, 2 hours at 30° C., less polar isomer tested where stated, read-out: Inhibition of MCP-1 Binding IC50, CCR2 Binding
Sequence (P41597 1-360 isoform P41597-2): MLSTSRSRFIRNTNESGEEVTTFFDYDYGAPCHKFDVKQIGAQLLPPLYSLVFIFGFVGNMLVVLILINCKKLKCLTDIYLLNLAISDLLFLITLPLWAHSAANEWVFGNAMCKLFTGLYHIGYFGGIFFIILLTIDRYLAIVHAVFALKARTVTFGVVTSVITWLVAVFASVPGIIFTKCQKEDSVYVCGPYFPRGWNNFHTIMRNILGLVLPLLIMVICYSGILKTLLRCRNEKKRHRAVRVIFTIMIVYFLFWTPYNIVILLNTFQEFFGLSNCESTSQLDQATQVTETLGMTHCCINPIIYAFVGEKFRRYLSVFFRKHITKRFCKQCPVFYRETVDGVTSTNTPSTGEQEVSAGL
pIC50: −log10 of the molar value.
OBSERVABLE: pIC50

The cases that follow already have their pIC50 on record.
[
  {
    "COMPOUND": "Cn1nc(NCC(=O)NC2CN(C3CCC(O)(c4cncs4)CC3)C2)c2cc(C(F)(F)F)ccc21 (stereo not shown)",
    "pIC50": 7.55
  },
  {
    "COMPOUND": "COc1ccc(C2(O)CCC(N3CC(NC(=O)CNc4noc5ccc(C(F)(F)F)cc45)C3)CC2)cn1 (stereo not shown)",
    "pIC50": 7.64
  },
  {
    "COMPOUND": "Cn1nc(NCC(=O)NC2CN(C3CCC(O)(c4ccccc4)CC3)C2)c2cc(C(F)(F)F)ccc21 (stereo not shown)",
    "pIC50": 7.72
  },
  {
    "COMPOUND": "Cc1ccc(C2(O)CCC(N3CC(NC(=O)CNc4nn(CCO)c5ccc(C(F)(F)F)cc45)C3)CC2)cn1 (stereo not shown)",
    "pIC50": 7.26
  },
  {
    "COMPOUND": "CC(C)(C)NC(=O)n1nc(NCC(=O)NC2CN(C3CCC(C#N)CC3)C2)c2cc(C(F)(F)F)ccc21 (stereo not shown)",
    "pIC50": 6.12
  }
]

A = O=C(CNc1n[nH]c2ccc(C(F)(F)F)cc12)NC1CN(C2CCC(O)(c3cncs3)CC2)C1 (stereo not shown)
B = CCOC(=O)C1CCC(N2CC(NC(=O)CNc3noc4ccc(C(F)(F)F)cc34)C2)CC1 (stereo not shown)
Which is greater in pIC50, the first item A or the second item B ? Respond using the label that marks the chosen record.
A
(A: 7.80, B: 7.54)

----------
target: CCR2 (Homo sapiens); assay: MCP-1 Receptor Binding Assay in THP-1 Cells; conditions: 0.5 nM 125I labeled MCP-1, 2 hours at 30° C., less polar isomer tested where stated, read-out: Inhibition of MCP-1 Binding IC50, CCR2 Binding
pIC50: −log10 of the molar value.
OBSERVABLE: pIC50

[
  {
    "COMPOUND": "CC(C)(C)OC(=O)NC1CCC(N2CC(NC(=O)CNc3n[nH]c4ccc(C(F)(F)F)cc34)C2)CC1 (centres unmarked)",
    "OBSERVABLE": "pIC50",
    "VALUE_OBSERVED": 7.06
  },
  {
    "COMPOUND": "CC(C)(C)NC(=O)n1nc(NCC(=O)NC2CN(C3CCC(O)(c4nccs4)CC3)C2)c2cc(C(F)(F)F)ccc21 (centres unmarked)",
    "OBSERVABLE": "pIC50",
    "VALUE_OBSERVED": 7.12
  },
  {
    "COMPOUND": "COc1ccc(C2CCC(N3CC(NC(=O)CNc4nn(S(C)(=O)=O)c5ccc(C(F)(F)F)cc45)C3)CC2)cn1 (centres unmarked)",
    "OBSERVABLE": "pIC50",
    "VALUE_OBSERVED": 5.43
  },
  {
    "COMPOUND": "C=CCn1nc(NCC(=O)NC2CN(C3CCC(C4CCCCC4)CC3)C2)c2cc(C(F)(F)F)ccc21 (centres unmarked)",
    "OBSERVABLE": "pIC50",
    "VALUE_OBSERVED": 5.44
  }
]

P = CCn1nc(NCC(=O)NC2CN(C3CCC(C(C)C)CC3)C2)c2cc(C(F)(F)F)ccc21 (centres unmarked)
Q = CCOCC1CCC(N2CC(NC(=O)CNc3nn(C)c4ccc(C(F)(F)F)cc34)C2)CC1 (centres unmarked)
Lowest pIC50? choose P or Q Answer by quoting the chosen item's label.
P
(P: 6.14, Q: 7.57)
